Provenance of the data: patent US11083725B2

test system: NHBE cells; experiment: Biolog metabolic array: substrate use by NHBE cells with or without CA09 infection; assay type: cell-based, human; settings: Control (uninfected) NHBE cells, Biolog PMM2, 7 hr
Parameter measured: Substrate use, 590 nm absorbance normalized to zero hour, 7 hr
Numbers only.

Okay, here is my list. What is Substrate use, 590 nm absorbance normalized to zero hour, 7 hr for each of these?
1. OC[C@@H]1OC(O)[C@@H](O)[C@H](O)[C@H]1O (stereo partly drawn) [L-Glucose]
2. OC[C@H]1O[C@H](OCC2O[C@@H](O)[C@H](O)[C@@H](O)[C@@H]2O)[C@H](O)[C@@H](O)[C@H]1O (stereo partly drawn) [D-Melibiose]
3. C[C@@H]1OC(O)[C@@H](O)[C@H](O)[C@@H]1O (stereo partly drawn) [L-Fucose]
4. CC(=O)CC(=O)O [Acetoacetic Acid]
5. OC[C@@H](O)[C@@H](O)[C@@H](O)CO [Adonitol]

[3.51, 1.88, 0.25, 1.53, 1.28]

---

tested on: CA09; assay: microbe, parasite or virus in culture; type: cell-based, influenza virus H1N1 strain A/CA/04/2009; conditions: NHBE, read-out: TCID50 (per mL)
Parameter measured: log reduction at 10 pM
One number for each entry.

[[record]]
compound = "CC(C)CCN1c2nc(Nc3cc(F)c(O)c(F)c3)ncc2N(C)C(=O)C1C (stereo not drawn) [BI-D1870]"
experimental_system = "CA09"
recorded_value = 0.28

[[record]]
compound = "O=C(CO)[C@@H](O)[C@@H](O)[C@H](O)[C@H](O)CO [D-mannoheptulose]"
experimental_system = "CA09"
recorded_value = 0


// moving on: another record for log reduction at 10 pM
Looking for the measured log reduction at 10 pM of Cn1cncc1[C@@](N)(c1ccc(Cl)cc1)c1ccc2c(c1)c(-c1cccc(Cl)c1)cc(=O)n2C [Tipifarnib] , can you help? 0.02

---

Consider the following molecules; for each one, report its 590 nm absorbance normalized to zero hour (substrate use), 2 hr.
system: NHBE cells; test: Biolog metabolic array: substrate use by NHBE cells with or without CA09 infection; type: cell-based, human; conditions: Control (uninfected) NHBE cells, 2 hr
Give bare numbers.

Okay, here is my list. What is 590 nm absorbance normalized to zero hour (substrate use), 2 hr for each of these?
1. CO[C@H]1O[C@H](CO)[C@@H](O)[C@H](O)[C@H]1O [a-Methyl-D-Glucoside]
2. OC[C@H]1OC(O)[C@@H](O)[C@@H](O)[C@@H]1O (some centres unmarked)
3. O=P(O)(O)O[C@H]1O[C@H](CO)[C@@H](O)[C@H](O)[C@H]1O [D-Glucose-1-Phosphate]
4. COC(=O)CCC(=O)O [Mono Methyl Succinate]
5. CC(=O)C(=O)O

1: 1.07; 2: 3.33; 3: 1.31; 4: 1.14; 5: 1.40

---

tested on: NHBE cells; assay: Biolog metabolic array: substrate use by NHBE cells with or without CA09 infection; type: cell-based, human; settings: Virus: CA09-infected NHBE cells, MOI 1; Biolog PMM2; 2 hr
Parameter measured: 590 nm absorbance normalized to zero hour (substrate use), 2 hr
Numbers only.

Worked examples follow.
[[record]]
compound = "CC(O)C(=O)O (centres unmarked)"
experimental_system = "NHBE cells"
recorded_value = 1.66

[[record]]
compound = "CCCCCC(=O)O"
experimental_system = "NHBE cells"
recorded_value = 0.28

[[record]]
compound = "C[C@@H](O)[C@H](O)[C@H](O)[C@@H](O)C=O"
experimental_system = "NHBE cells"
recorded_value = 0.33

[[record]]
compound = "OC[C@H]1O[C@@H](O[C@@H]2[C@@H](CO)OC(O)(CO)[C@H]2O)[C@H](O)[C@@H](O)[C@H]1O (mixture of isomers)"
experimental_system = "NHBE cells"
recorded_value = 2.24

[[record]]
compound = "O=C(O)CC(CC(=O)O)C(=O)O"
experimental_system = "NHBE cells"
recorded_value = 0.25

[[record]]
compound = "CO[C@@H]1OC[C@@H](O)[C@H](O)[C@H]1O [b-Methyl-D-Xyloside]"
experimental_system = "NHBE cells"
recorded_value = 2.38

[[record]]
compound = "OCC1OC(OC2C(CO)OC(OC3C(CO)OC(O)C(O)C3O)C(O)C2O)C(O)C(O)C1O (centres unmarked)"
experimental_system = "NHBE cells"
recorded_value = 3.05

[[record]]
compound = "CCC(=O)O"
experimental_system = "NHBE cells"
recorded_value = 0.70

[[record]]
compound = "OC[C@H]1O[C@H](OC[C@H]2O[C@H](OC[C@H]3O[C@H](O[C@]4(CO)O[C@H](CO)[C@@H](O)[C@@H]4O)[C@H](O)[C@@H](O)[C@@H]3O)[C@H](O)[C@@H](O)[C@H]2O)[C@H](O)[C@@H](O)[C@H]1O"
experimental_system = "NHBE cells"
recorded_value = 1.76

[[record]]
compound = "Cc1cn([C@H]2C[C@H](O)[C@@H](CO)O2)c(=O)[nH]c1=O"
experimental_system = "NHBE cells"
recorded_value = 2.29


Okay, here is my list. What is 590 nm absorbance normalized to zero hour (substrate use), 2 hr for each of these?
1. C[C@@H]1OC(O)[C@@H](O)[C@H](O)[C@@H]1O (some centres unmarked)
2. OC[C@@]12OC[C@@H](O1)[C@@H](O)[C@@H](O)[C@@H]2O
3. CCC(=O)C(=O)O
4. O=C(O)CCC(=O)C(=O)O
5. O=C(O)C[C@H](O)C(=O)O
6. OC[C@H]1O[C@@](CO)(O[C@H]2O[C@H](CO)[C@@H](O)[C@H](O)[C@H]2O)[C@@H](O[C@H]2O[C@H](CO)[C@@H](O)[C@H](O)[C@H]2O)[C@@H]1O

1: 0.28; 2: 1.48; 3: 0.29; 4: 0.37; 5: 1.19; 6: 2.39

Looking for the measured 590 nm absorbance normalized to zero hour (substrate use), 2 hr of O=C(CO)[C@@H](O[C@H]1O[C@H](CO)[C@@H](O)[C@H](O)[C@H]1O)[C@H](O)[C@H](O)CO , can you help? 0.28

---

Consider the following compounds; for each one, report its 590 nm absorbance normalized to zero hour (substrate use), 2 hr.
test system: NHBE cells; assay: Biolog metabolic array: substrate use by NHBE cells with or without CA09 infection; type: cell-based, human; conditions: Virus (CA09-infected, MOI 1) NHBE cells, 2 hr
Numbers only.

Worked examples follow.
[[record]]
compound = "O=C(CO)[C@@H](O)[C@H](O)[C@H](O)COP(=O)(O)O [D-Fructose-6-Phosphate]"
recorded_value = 0.75

[[record]]
compound = "COC(=O)[C@@H](C)O [Methyl D-Lactate]"
recorded_value = 2.49

[[record]]
compound = "NC(=O)CCC(=O)O"
recorded_value = 1.65

[[record]]
compound = "COC(=O)CCC(=O)O [Mono Methyl Succinate]"
recorded_value = 1.71

[[record]]
compound = "O=C[C@@H](O)[C@H](O)[C@H](O)CO"
recorded_value = 0.90

[[record]]
compound = "CC(O)CO (centres unmarked)"
recorded_value = 2.44

[[record]]
compound = "O=C[C@H](O)[C@@H](O)[C@H](O)[C@H](O)C(=O)O"
recorded_value = 1.90

[[record]]
compound = "OCc1ccccc1O[C@@H]1O[C@H](CO)[C@@H](O)[C@H](O)[C@H]1O"
recorded_value = 1.06


Okay, here is my list. What is 590 nm absorbance normalized to zero hour (substrate use), 2 hr for each of these?
1. O=C(O)CCC(=O)O
2. O=P(O)(O)OC[C@H](O)CO (racemic) [D,L-a-Glycerol Phosphate]
3. O=C(CO)[C@@H](O)[C@@H](O)[C@H](O)CO

[2.01, 2.64, 0.24]

---

tested on: NHBE cells; assay: Biolog metabolic array: substrate use by NHBE cells with or without CA09 infection; assay type: cell-based, human; details: Virus (CA09-infected NHBE cells, MOI 1); 10 hr
Parameter measured: 590 nm absorbance normalized to zero hour (substrate use), 10 hr
Give bare numbers.

[[record]]
compound = "CO[C@H]1O[C@H](CO)[C@@H](O)[C@H](O)[C@@H]1O [a-Methyl-D-Mannoside]"
recorded_value = 1.14


Okay, here is my list. What is 590 nm absorbance normalized to zero hour (substrate use), 10 hr for each of these?
1. O[C@H]1[C@H](O)[C@@H](O)[C@H](O)[C@@H](O)[C@H]1O
2. O=C(CO)[C@@H](O)[C@H](O)[C@@H](O)CO
3. O=C(CO)[C@@H](O)[C@H](O)[C@H](O)CO
4. OC[C@@H](O)[C@@H](O)[C@@H](O)CO
5. CCC(=O)C(=O)O
6. O=C(O)C[C@@H](O)C(=O)O
7. CC(O)C(C)O (stereo not shown)
8. O=C(O)CCC(=O)C(=O)O

[1.24, 0.41, 1.52, 0.44, 0.34, 2.27, 0.42, 0.64]

Okay, here is my list. What is 590 nm absorbance normalized to zero hour (substrate use), 10 hr for each of these?
1. O=C(O)CCCO [g-Hydroxy-Butyric Acid]
2. OC[C@@H](O)[C@@H](O[C@H]1O[C@H](CO)[C@@H](O)[C@H](O)[C@H]1O)[C@H](O)[C@@H](O)CO
3. O=C(O)C(O)C(O)C(=O)O (stereo not shown)
4. OC[C@H]1O[C@H](OC[C@H]2OC(O)(CO)[C@@H](O)[C@@H]2O)[C@H](O)[C@@H](O)[C@@H]1O (stereo partly shown)
5. OC[C@@H]1OC(O)[C@@H](O)[C@H](O)[C@H]1O (stereo partly shown)
6. O=C(O)CC(CC(=O)O)C(=O)O

0.63
1.08
2.40
0.46
0.76
0.40

Okay, here is my list. What is 590 nm absorbance normalized to zero hour (substrate use), 10 hr for each of these?
1. OC[C@H]1O[C@@H](OC[C@H]2OC(O)[C@H](O)[C@@H](O)[C@@H]2O)[C@H](O)[C@@H](O)[C@@H]1O (stereo partly shown)
2. CCCCCC(=O)O
3. CC(=O)C(C)O (stereo not shown) [3-Hydroxy 2-Butanone]
4. OC[C@H]1O[C@@H](O[C@H]2[C@H](O)[C@@H](O)[C@@H](O)O[C@@H]2CO)[C@H](O)[C@@H](O)[C@H]1O

1: 1.85; 2: 0.40; 3: 2.16; 4: 0.41
